# System: Pseudomonas aeruginosa
# Protocol details: In vitro antimicrobial activity against Pseudomonas aeruginosa GC 2214
# Format: functional
Measured property: MIC

Record request: MIC value, item COc1ccc(Cn2c(=O)ccn([C@@H]3OC([C@H](O)[C@H](NCCCNC(=O)[C@H](N)C(O)C(C)C)C(=O)OC(C)(C)C)[C@@H](O[Si](C)(C)C(C)(C)C)[C@H]3O[Si](C)(C)C(C)(C)C)c2=O)cc1 (some centres undefined)
> 128 µg/mL

Quick one: MIC of COc1ccc(Cn2c(=O)ccn([C@@H]3OC([C@H](O)[C@H](NCCCNC(=O)[C@@H](C)N)C(=O)OC(C)(C)C)[C@@H](O[Si](C)(C)C(C)(C)C)[C@H]3O[Si](C)(C)C(C)(C)C)c2=O)cc1 (some centres undefined) ?
128 µg/mL

Please report the recorded MIC for COc1ccc(Cn2c(=O)ccn([C@@H]3OC([C@H](O)[C@H](NCCCNC(=O)[C@H](N)CCCCNC(=O)OCc4ccccc4)C(=O)OC(C)(C)C)[C@@H](O[Si](C)(C)C(C)(C)C)[C@H]3O[Si](C)(C)C(C)(C)C)c2=O)cc1 (some centres undefined) .
> 128 µg/mL

Endpoint output: MIC of CC(C)C(O)[C@@H](N)C(=O)NCCCN[C@H](C(=O)OC(C)(C)C)[C@@H](O)C1O[C@@H](n2ccc(=O)[nH]c2=O)[C@H](O[Si](C)(C)C(C)(C)C)[C@@H]1O[Si](C)(C)C(C)(C)C (some centres undefined) . Value?
> 128 µg/mL

---

# System: Staphylococcus sp.
# Protocol details: In vitro antimicrobial activity against CNS GC 4538
# Assay type: functional
Give MIC for every item shown.
Record the value in µg/mL, omitting the unit from your answer.

Which MIC is listed for COc1ccc(Cn2c(=O)ccn([C@@H]3OC([C@H](O)[C@H](NCCCNC(=O)[C@H](N)C(O)C(C)C)C(=O)OC(C)(C)C)[C@@H](O[Si](C)(C)C(C)(C)C)[C@H]3O[Si](C)(C)C(C)(C)C)c2=O)cc1 (some centres undefined) ?
4

Give the measured MIC of CC(C)C(O)[C@@H](N)C(=O)NCCCN[C@H](C(=O)OC(C)(C)C)[C@@H](O)C1O[C@@H](n2ccc(=O)[nH]c2=O)[C@H](O[Si](C)(C)C(C)(C)C)[C@@H]1O[Si](C)(C)C(C)(C)C (some centres undefined) .
2

Item COc1ccc(Cn2c(=O)ccn([C@@H]3OC([C@H](O)[C@H](NCCCNC(=O)[C@H](N)CCCCNC(=O)OCc4ccccc4)C(=O)OC(C)(C)C)[C@@H](O[Si](C)(C)C(C)(C)C)[C@H]3O[Si](C)(C)C(C)(C)C)c2=O)cc1 (some centres undefined) has what recorded MIC?
8

Could you tell me which MIC is on file for COc1ccc(Cn2c(=O)ccn([C@@H]3OC([C@H](O)[C@H](NCCCNC(=O)[C@@H](C)N)C(=O)OC(C)(C)C)[C@@H](O[Si](C)(C)C(C)(C)C)[C@H]3O[Si](C)(C)C(C)(C)C)c2=O)cc1 (some centres undefined) ?
8

---

# Protocol details: The inhibitory activity of compound against MraY or MurG at 12.5 ug/mL; No Inhibition
Calls of active or inactive are those of the source. The calls are words filed in the database; no cut-off is given here.
Measured property: Inhibitory activity

Solved cases (8 shown):
[
  {
    "Molecule": "COc1ccc(Cn2c(=O)ccn([C@@H]3OC([C@H](O)[C@H](NCCCNC(=O)[C@H](N)CCCCNC(=O)OCc4ccccc4)C(=O)OC(C)(C)C)[C@@H](O[Si](C)(C)C(C)(C)C)[C@H]3O[Si](C)(C)C(C)(C)C)c2=O)cc1 (some centres undefined)",
    "Experimental result": "inactive"
  },
  {
    "Molecule": "COc1ccc(Cn2c(=O)ccn([C@@H]3OC([C@H](O)[C@H](NCCCNC(=O)[C@@H](C)N)C(=O)OC(C)(C)C)[C@@H](O[Si](C)(C)C(C)(C)C)[C@H]3O[Si](C)(C)C(C)(C)C)c2=O)cc1 (some centres undefined)",
    "Experimental result": "inactive"
  },
  {
    "Molecule": "COc1ccc(Cn2c(=O)ccn([C@@H]3OC([C@H](O)[C@H](NCCCNC(=O)[C@H](N)CC(C)C)C(=O)OC(C)(C)C)[C@@H](O[Si](C)(C)C(C)(C)C)[C@H]3O[Si](C)(C)C(C)(C)C)c2=O)cc1 (some centres undefined)",
    "Experimental result": "inactive"
  },
  {
    "Molecule": "COc1ccc(Cn2c(=O)ccn([C@@H]3OC([C@H](O)[C@H](NCCCNC(=O)[C@H](N)CCc4ccccc4)C(=O)OC(C)(C)C)[C@@H](O[Si](C)(C)C(C)(C)C)[C@H]3O[Si](C)(C)C(C)(C)C)c2=O)cc1 (some centres undefined)",
    "Experimental result": "inactive"
  },
  {
    "Molecule": "COc1ccc(Cn2c(=O)ccn([C@@H]3OC([C@H](O)[C@H](NCCCNC(=O)[C@H](N)C(O)C(C)C)C(=O)OC(C)(C)C)[C@@H](O[Si](C)(C)C(C)(C)C)[C@H]3O[Si](C)(C)C(C)(C)C)c2=O)cc1 (some centres undefined)",
    "Experimental result": "inactive"
  },
  {
    "Molecule": "COc1ccc(Cn2c(=O)ccn([C@@H]3OC([C@H](O)[C@H](NCCCNC(=O)[C@@H](CC(C)C)NC(=O)[C@H](CCCN=C(N)N)NC(=O)N[C@H](C(=O)O)C(C)C)C(=O)O)[C@@H](O)[C@H]3O)c2=O)cc1 (some centres undefined)",
    "Experimental result": "inactive"
  },
  {
    "Molecule": "COc1ccc(Cn2c(=O)ccn([C@@H]3OC([C@@H](O)[C@H](NCCCNC(=O)[C@H](N)C(O)C(C)C)C(=O)OC(C)(C)C)[C@@H](O[Si](C)(C)C(C)(C)C)[C@H]3O[Si](C)(C)C(C)(C)C)c2=O)cc1 (some centres undefined)",
    "Experimental result": "inactive"
  },
  {
    "Molecule": "COc1ccc(Cn2c(=O)ccn([C@@H]3OC([C@H](O)[C@H](NCCCNC(=O)[C@H](N)CCC(=O)OC(C)(C)C)C(=O)OC(C)(C)C)[C@@H](O[Si](C)(C)C(C)(C)C)[C@H]3O[Si](C)(C)C(C)(C)C)c2=O)cc1 (some centres undefined)",
    "Experimental result": "inactive"
  }
]

Tell me the measured Inhibitory activity of COc1ccc(Cn2c(=O)ccn([C@@H]3OC([C@H](O)[C@H](NCCCNC(=O)[C@H](N)CC(=O)OCc4ccccc4)C(=O)OC(C)(C)C)[C@@H](O[Si](C)(C)C(C)(C)C)[C@H]3O[Si](C)(C)C(C)(C)C)c2=O)cc1 (some centres undefined) , please.
inactive

The measured values listed here are drawn from ChEMBL document CHEMBL1145867.
